- system tested: human mAChRM1 (Homo sapiens)
- Construct: host or cells: CHO-K1
- method description: mAChR M1 cell-based functional assay (calcium mobilization), positive allosteric modulator activity: increase in the EC20 acetylcholine response
- experimental setup: PAM mode
readout label: Emax (%)

compound	display unit	Emax
Cn1cc2c(-c3cc(F)c(CN4Cc5ncccc5C4=O)c(F)c3)ccc(C3(O)CCOC3)c2n1 (stereo not shown)	%	83
Cc1cc(-c2ccc(C(C)(C)O)c3nn(C)cc23)ccc1CN1Cc2ncccc2C1=O	%	71
Cc1cc(-c2cc(C(C)(C)O)c3nn(C)cc3c2)ccc1CN1Cc2cccc(F)c2C1=O	%	74
Cn1cc2c(-c3cc(F)c(CN4Cc5ccncc5C4=O)c(F)c3)ccc(C(C)(C)O)c2n1	%	76
Cc1cc(-c2cc(C(C)(C)O)c3nn(C)cc3c2)cc(F)c1CN1Cc2ncccc2C1=O	%	66
Cn1cc2c(-c3cc(Cl)c(CN4Cc5ncccc5C4=O)c(C4CC4)c3)ccc(C(C)(C)O)c2n1	%	62
CN(C)c1cc(-c2ccc(C(C)(C)O)c3nn(C)cc23)cc(F)c1CN1Cc2ncccc2C1=O	%	73
CC(C)COc1cc(-c2ccc(C(C)(C)O)cc2)cc(F)c1CN1Cc2ncccc2C1=O	%	76
Cn1ncc2c(-c3cc(F)c(CN4Cc5ncccc5C4=O)c(F)c3)ccc(C(C)(C)O)c21	%	76
Cn1cc2c(-c3cc(F)c(CN4Cc5ncccc5C4=O)c(Cl)c3)ccc(C(C)(C)O)c2n1	%	70

###

- system tested: human mAChRM1 (Homo sapiens)
- Construct: host or cells: CHO-K1
- method description: mAChR M1 cell-based functional assay (calcium mobilization), positive allosteric modulator activity: increase in the EC20 acetylcholine response
- experimental setup: increase in the EC20 acetylcholine response, read-out: PAM Activity Human M1 EC50
readout label: EC50 (nM)

Some solved cases for reference:
compound	EC50, nM
CC[C@](C)(O)c1ccc(-c2cc(F)c(CN3Cc4ncccc4C3=O)c(F)c2)c2cn(C)nc12	254
CCC(C)(O)c1ccc(-c2cc(F)c(CN3Cc4ncccc4C3=O)c(F)c2)c2cn(C)nc12 (centres unmarked)	138
Cn1cc2c(-c3cc(F)c(CN4Cc5nccnc5C4=O)c(F)c3)ccc(C(C)(C)O)c2n1	281

A = CCn1cc2c(-c3cc(F)c(CN4Cc5ncccc5C4=O)c(F)c3)ccc(C(C)(C)O)c2n1
B = Cc1cc(-c2ccc(C(O)(C3CC3)C3CC3)c3nn(C)cc23)cc(F)c1CN1Cc2ncccc2C1=O
Ask: # returns the entry with the larger EC50; inputs A and B Respond with the label that goes with your answer.
Reply: B
(B: 1700 nM, A: 176 nM)

###

- system tested: human mAChRM1 (Homo sapiens, UniProt P11229)
- Construct: host or cells: CHO-K1
- Sequence (P11229 whole entry): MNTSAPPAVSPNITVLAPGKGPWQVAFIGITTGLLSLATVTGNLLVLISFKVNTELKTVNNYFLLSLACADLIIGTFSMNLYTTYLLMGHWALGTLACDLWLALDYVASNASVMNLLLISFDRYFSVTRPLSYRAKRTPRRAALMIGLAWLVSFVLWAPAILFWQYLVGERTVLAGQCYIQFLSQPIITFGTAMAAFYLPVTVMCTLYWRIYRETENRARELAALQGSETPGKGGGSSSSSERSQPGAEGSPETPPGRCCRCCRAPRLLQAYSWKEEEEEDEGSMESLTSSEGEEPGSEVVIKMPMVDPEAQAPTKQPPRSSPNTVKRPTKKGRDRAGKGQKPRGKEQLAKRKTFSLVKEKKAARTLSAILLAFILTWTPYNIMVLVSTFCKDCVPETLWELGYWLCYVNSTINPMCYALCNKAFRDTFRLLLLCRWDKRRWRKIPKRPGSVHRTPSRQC
- method description: mAChR M1 cell-based functional assay (calcium mobilization), positive allosteric modulator activity: increase in the EC20 acetylcholine response
- experimental setup: increase in the EC20 acetylcholine response, read-out: PAM Activity Human M1 EC50
pEC50: −log10 of the molar value.
readout label: pEC50

Some solved cases for reference:
compound	pEC50
Cn1cc2c(-c3cc(F)c(CN4Cc5ncccc5C4=O)c(F)c3)ccc(C3(O)CCC(C#N)CC3)c2n1 (centres unmarked)	6.65
[2H]C1([2H])c2ncccc2C(=O)N1Cc1c(C)cc(-c2ccc(C(C)(C)O)c3nn(C)cc23)cc1F (single isomer, unassigned)	7.00
Cc1cc(-c2ccc(C(C)(C)O)c3ccccc23)cc(F)c1CN1Cc2ncccc2C1=O	5.16
Cc1cnc2c(c1)C(=O)N(Cc1c(F)cc(-c3ccc(C(C)(C)O)c4nn(C)cc34)cc1F)C2	6.27
Cn1cc2c(-c3cc(F)c(CN4Cc5cccc(F)c5C4=O)c(F)c3)ccc(C(C)(C)O)c2n1	7.19
CC(C)(O)c1ccc(-c2cc(F)c(CN3Cc4ncccc4C3=O)c(F)c2)cc1	5.83

1 = CC(C)(O)c1ccc(-c2cc(F)c(CN3Cc4cccnc4C3=O)c(Cl)c2)cc1
2 = [2H]C([2H])([2H])C(C)(O)c1ccc(-c2cc(F)c(CN3Cc4ncccc4C3=O)c(F)c2)c2cn(C)nc12 (centres unmarked)
Ask: # returns the entry with the larger pEC50; inputs 1 and 2 Respond with the label that goes with your answer.
Reply: 2
(2: 7.02, 1: 5.43)

1 = [2H]C([2H])([2H])n1cc2c(-c3cc(F)c(CN4Cc5ncccc5C4=O)c(F)c3)ccc(C(C)(C)O)c2n1
2 = Cc1cc(-c2ccc(C(C)(C)O)cc2)cc(F)c1CN1Cc2ncccc2C1=O
Ask: Of the pair 1 and 2 , name the member with the lesser recorded pEC50. Respond with the label that goes with your answer.
Reply: 2
(2: 5.88, 1: 6.91)
